System: PfAP2-LT AP2 domain (GST-tagged)
assayNotes: gcPBM binding intensity (ln(normalized median fluorescence intensity)); higher = stronger DNA binding
In all, about 25,000 sequences were measured (“ln(normalized median fluorescence intensity)”: median about 8.9, highest 2% from about 10 on). This is one part of a sample in which the highest values are shown more often than they occur.
gcPBM binding intensity (ln) listing for selected sequences.
A bare number is all that is needed in reply.

The following sequences have reported results that may help.
sequencerecord="CAAAAAATTCAACACACACACACACCGATAAATAAA [CACACA_site8330]" testsystem="PfAP2-LT AP2 domain (GST-tagged)" measuredattribute="gcPBM binding intensity (ln)" quantitativereadout=10.1
sequencerecord="TTTGTGCCTATAAATTAACACACAGAAATATATAGA [CACACA_site8175]" testsystem="PfAP2-LT AP2 domain (GST-tagged)" measuredattribute="gcPBM binding intensity (ln)" quantitativereadout=9.06
sequencerecord="TTATGATCATTTATATGTACACATAATTTTTGTGCT [XGTACX_site5568]" testsystem="PfAP2-LT AP2 domain (GST-tagged)" measuredattribute="gcPBM binding intensity (ln)" quantitativereadout=9.03
sequencerecord="TGTAATAAATAGTACACACACACATATTTATATATC [CACACA_site6770]" testsystem="PfAP2-LT AP2 domain (GST-tagged)" measuredattribute="gcPBM binding intensity (ln)" quantitativereadout=9.72
sequencerecord="TCTTTATCTTCTTATACACACATTTATTAAAAAAAA [CACACA_site445]" testsystem="PfAP2-LT AP2 domain (GST-tagged)" measuredattribute="gcPBM binding intensity (ln)" quantitativereadout=8.55
sequencerecord="AATATAAATAATGTTAAACACACATACCGATATATA [CACACA_site8869]" testsystem="PfAP2-LT AP2 domain (GST-tagged)" measuredattribute="gcPBM binding intensity (ln)" quantitativereadout=9.02

Please look at the following sequence next.
Query: # query: gcPBM binding intensity (ln) of entry AAATAATATAAACATACACACACACCGATATATATA [CACACA_site8945]
Response: 9.92
